# METHOD NOTES: NCI Yeast Anticancer Drug Screen. Data for the wt2 strain (AID 169);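 further: 0% = growth of vehicle-treated yeast cultures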
# CONDITION: S. cerevisiae wt2 strain growth inhibition; at 33.0 µM
Compounds without any hit were thinned out: in the full panel of roughly 79,000, 15% have a hit. Activity calls are given as the source filed them. No stated cut-off is given here; in the data, active means growth inhibition above about 70%; inactive means the rest.
Form entry, call: pick from yes (1) = active, no (0) = inactive

Below are worked cases with known answers.
[
  {
    "COMPOUND": "C[C@@H]1C[C@H]2[C@@H]3CCC4=CC(=O)C=C[C@]4(C)[C@@]3(Cl)[C@@H](Cl)C[C@]2(C)[C@@]1(O)C(=O)COP(=O)(O)O",
    "ANSWER LABEL": "no (0)"
  },
  {
    "COMPOUND": "CNC(=O)OCc1c(COC(=O)NC)c(-c2ccc(Cl)c(Cl)c2)n2c1CCC2",
    "ANSWER LABEL": "no (0)"
  },
  {
    "COMPOUND": "S=C(S)NN1CCOCC1",
    "ANSWER LABEL": "no (0)"
  }
]

Per the records of this test, what outcome belongs to "O=C(NC(Nc1ccc(F)c(Cl)c1)(C(F)(F)F)C(F)(F)F)C(C(F)(F)F)C(F)(F)F" ?
yes (1)

Per the records of this test, what outcome belongs to "CC(=O)[O][Bi]([c]1ccccc1)[c]1ccccc1" ?
yes (1)

Per the records of this test, what outcome belongs to "COc1ccccc1/C=C1\Sc2scc(-c3cccc([N+](=O)[O-])c3)[n+]2C1=O" ?
yes (1)

Per the records of this test, what outcome belongs to "CCCC/C=C/C(CC)(C(=O)OCC)C(=O)OCC" ?
no (0)

Per the records of this test, what outcome belongs to "O=Nc1cccnc1N=O" ?
yes (1)

Per the records of this test, what outcome belongs to "O=C(Nc1ccc(Cl)cc1)OCC#CCCl" ?
yes (1)

Per the records of this test, what outcome belongs to CC(Br)C(=O)c1ccc2cc(Br)c3ccccc3c2c1 (centres undefined) ?
no (0)

----------
Entries and their growth inhibition values follow.
# METHOD NOTES: NCI Yeast Anticancer Drug Screen. Data for the bub3 strain (AID 167)
# CONDITION: S. cerevisiae bub3 mutant strain, at 3.7 µM, stronger effect = higher value
Compounds without any hit were thinned out: in the full panel of roughly 79,000, 15% have a hit.
Give the number; % is assumed, so skip it.

Examples with answers:
[
  {
    "COMPOUND": "CCOC(=O)c1cnc2cc(C(F)(F)F)ccc2c1N=[N+]=[N-]",
    "UNIT OF MEASUREMENT": "%",
    "REPORTED VALUE": 7
  },
  {
    "COMPOUND": "CCCCCCCCC/C=C/C=C/C(=O)NCC(=O)NC1C(O)C(O)C(Nc2ncnc3nc[nH]c23)OC1C(O)CO (stereo unspecified)",
    "UNIT OF MEASUREMENT": "%",
    "REPORTED VALUE": -38
  },
  {
    "COMPOUND": "O=[N+]([O-])C(=C(Sc1ccccc1)Sc1ccccc1)C(Cl)=C(Cl)Cl",
    "UNIT OF MEASUREMENT": "%",
    "REPORTED VALUE": 18
  }
]

Name the recorded growth inhibition of the item "Cc1nc(-c2ccccc2)c(-c2ccccc2)s1" in your answer.
2

Name the recorded growth inhibition of the item "CSC(=S)N/N=C(\C)c1cccc(C)n1" in your answer.
-20

Name the recorded growth inhibition of the item CCC(C(=O)O)C1=C(c2ccccc2)CCc2ccccc21 (stereo unspecified) in your answer.
13

Name the recorded growth inhibition of the item "CC(=O)Oc1cc(-c2cc(OC(C)=O)c(OC(C)=O)c3ccccc23)c2ccccc2c1OC(C)=O" in your answer.
4

Name the recorded growth inhibition of the item COc1ccc(C2c3cc4c(cc3OC(C)(O)C2C)OCO4)c(OC)c1 (stereo unspecified) in your answer.
-1

Name the recorded growth inhibition of the item "Cc1ccc(CSC(N)=Nc2ccccc2)cc1C" in your answer.
5

Name the recorded growth inhibition of the item "CCN(CC)CCN1C(=O)c2cccc3cc(OC)cc(c23)C1=O" in your answer.
-3

Name the recorded growth inhibition of the item "O=C(COC(=O)c1cc(O)c(O)c(O)c1)c1ccc(-c2ccccc2)cc1" in your answer.
-3

Name the recorded growth inhibition of the item "O=C1CSc2cc([N+](=O)[O-])ccc2N1" in your answer.
9

Name the recorded growth inhibition of the item Nc1ccccc1CC(O)C(=O)O (stereo unspecified) in your answer.
-14

Name the recorded growth inhibition of the item "Cc1cc(O)cc(O)c1N=Nc1ccc([N+](=O)[O-])cc1" in your answer.
26

Name the recorded growth inhibition of the item "NC(=O)NN=C(CS)CS" in your answer.
-7
